Kindly supply the reported log10 of CC50 values for the records listed here.
tested on: LoVo; test: SRB colorimetric assay of cell growth and viability, LoVo; assay type: cell-based, human; details: 48 hours exposure; read-out: LC50 LOVO
Where a SMILES comes first, the peptide text is derived from it. Bridges are numbered along the chain shown (N, C = ends). [ ]: non-standard residue; d: D form. The star is where a group is joined. d(aIle) = CC[C@H](C)[C@@H](N)C(=O)O; d(aThr) = C[C@@H](O)[C@@H](N)C(=O)O; Hexanoyl(5-Me) = CC(C)CCCC(=O)*; Orn = NCCC[C@H](N)C(=O)O; Dhb = C/C=C(\N)C(=O)O
Would you kindly interpret these values as log10 of CC50 expressed in µM?

The compound listed as C/C=C1\NC(=O)[C@H](Cc2ccccc2)NC(=O)[C@@H](C(C)C)NC(=O)[C@@H]([C@@H](C)CC)NC(=O)[C@H](NC(=O)[C@H](NC(=O)[C@H](CCCN)NC(=O)[C@H]2CCCN2C(=O)[C@H](NC(=O)[C@H](C)NC(=O)[C@@H](NC(=O)[C@H](NC(=O)CCCC(C)C)C(C)C)[C@@H](C)O)C(C)C)[C@@H](C)CC)[C@@H](C)OC(=O)[C@H](C(C)C)NC1=O [Compound 44, [Ala^11]-KF] ({Hexanoyl(5-Me)}-[dV]TA[dV][dP][Orn][d(aIle)][d(aThr)][d(aIle)][dV]F[Dhb]V; ester 8-C) has a reported log10 of CC50 of 0.63

Lab note: measured log10 of CC50 of C/C=C1\NC(=O)[C@H](Cc2ccccc2)NC(=O)[C@@H](C(C)C)NC(=O)[C@@H]([C@@H](C)CC)NC(=O)[C@H](NC(=O)[C@H](NC(=O)[C@H](CCCCN)NC(=O)[C@H]2CCCN2C(=O)[C@H](NC(=O)[C@@H](NC(=O)[C@@H](NC(=O)[C@H](NC(=O)CCCC(C)C)C(C)C)[C@@H](C)O)C(C)C)C(C)C)[C@@H](C)CC)[C@@H](C)OC(=O)[C@H](C(C)C)NC1=O [Compound 5, [Lys^8]-KF] was -0.32

According to the records, this compound C/C=C1\NC(=O)[C@H](Cc2ccccc2)NC(=O)[C@@H](C(C)C)NC(=O)[C@@H]([C@@H](C)CC)NC(=O)[C@H](NC(=O)[C@H](NC(=O)[C@H](CCCN)NC(=O)[C@H]2CCCN2C(=O)[C@H](NC(=O)[C@@H]2CCCN2C(=O)[C@@H](NC(=O)[C@H](NC(=O)CCCC(C)C)C(C)C)[C@@H](C)O)C(C)C)[C@@H](C)CC)[C@@H](C)OC(=O)[C@H](C(C)C)NC1=O [Compound 47, [Pro^11]-KF] ({Hexanoyl(5-Me)}-[dV]TP[dV][dP][Orn][d(aIle)][d(aThr)][d(aIle)][dV]F[Dhb]V; ester 8-C) displays log10 of CC50 of 0.83

According to the records, this compound C/C=C1\NC(=O)[C@H](Cc2ccccc2)NC(=O)[C@@H](C(C)C)NC(=O)[C@@H]([C@@H](C)CC)NC(=O)[C@H](NC(=O)[C@H](NC(=O)[C@H](CCCN)NC(=O)[C@H]2CCCN2C(=O)[C@H](NC(=O)[C@@H](NC(=O)[C@@H](NC(=O)[C@H](NC(=O)CCCC(C)C)C(C)C)C(C)C)C(C)C)C(C)C)[C@@H](C)CC)[C@@H](C)OC(=O)[C@H](C(C)C)NC1=O [Compound 6, [Val^12]-KF] ({Hexanoyl(5-Me)}-[dV]VV[dV][dP][Orn][d(aIle)][d(aThr)][d(aIle)][dV]F[Dhb]V; ester 8-C) displays log10 of CC50 of -0.33

Documented log10 of CC50 of C/C=C1\NC(=O)[C@H](Cc2ccccc2)NC(=O)[C@@H](C(C)C)NC(=O)[C@@H]([C@@H](C)CC)NC(=O)[C@H](NC(=O)[C@H](NC(=O)[C@H](CCCN)NC(=O)[C@H]2CCCN2C(=O)[C@H](NC(=O)[C@H](CCC(N)=O)NC(=O)[C@@H](NC(=O)[C@H](NC(=O)CCCC(C)C)C(C)C)[C@@H](C)O)C(C)C)[C@@H](C)CC)[C@@H](C)OC(=O)[C@H](C(C)C)NC1=O [Compound 48, [Gln^11]-KF] ({Hexanoyl(5-Me)}-[dV]TQ[dV][dP][Orn][d(aIle)][d(aThr)][d(aIle)][dV]F[Dhb]V; ester 8-C) : 0.82

Sample C/C=C1\NC(=O)[C@H](Cc2ccccc2)NC(=O)[C@@H](C(C)C)NC(=O)[C@@H](C(C)C)NC(=O)[C@H](NC(=O)[C@H](NC(=O)[C@H](CCCN)NC(=O)[C@H]2CCCN2C(=O)[C@H](NC(=O)[C@@H](NC(=O)[C@@H](NC(=O)[C@H](NC(=O)CCCC(C)C)C(C)C)[C@@H](C)O)C(C)C)C(C)C)C(C)C)[C@@H](C)OC(=O)[C@H](C(C)C)NC1=O [Compound 12, [D-Val^5, D-Val^7]-KF] ({Hexanoyl(5-Me)}-[dV]TV[dV][dP][Orn][dV][d(aThr)][dV][dV]F[Dhb]V; ester 8-C) ; log10 of CC50 observed: 0.62

Data point: C/C=C1\NC(=O)[C@H](Cc2ccccc2)NC(=O)[C@@H](C(C)C)NC(=O)[C@@H]([C@@H](C)CC)NC(=O)[C@H](NC(=O)[C@H](NC(=O)[C@H](CCCN)NC(=O)[C@H]2CCCN2C(=O)[C@H](NC(=O)[C@@H](NC(=O)[C@@H](NC(=O)[C@H](NC(=O)CCCCCCC)C(C)C)[C@@H](C)O)C(C)C)C(C)C)[C@@H](C)CC)[C@@H](C)OC(=O)[C@H](C(C)C)NC1=O [Compound 18, [Oct^14]-KF] ; log10 of CC50 = -0.40
